Test system: house flies (Musca domestica, L.)
MEASUREMENT_DESCRIPTION: Fly Bait Test
Format: in vivo
Design: key: C: no control; B: partial control; A: excellent control
CONDITION_SET: bait, 500 parts per million, twenty-four hours
ENDPOINT: Fly

Below, 5 molecules whose answers are already recorded.
> print(dat)
                                   molecule  endpoint  val
1  CCOC(=O)CSC(C)(C)C=NOC(=O)N(C)SC(Cl)(Cl)Cl       Fly    C
2    CC(=NOC(=O)N(C)SC(Cl)(Cl)Cl)C(C)(C)C#N       Fly    A
3  CN(SC(Cl)(Cl)Cl)C(=O)ON=CC(C)(C)[N+](=O)[O-]       Fly    A
4  CCOC(=O)C(C)SC(C)(C)C=NOC(=O)N(C)SC(Cl)(Cl)Cl (stereo not shown)       Fly    C
5  CN(SC(F)(F)F)C(=O)ON=CC(C)(C)C#N [drawing 12]       Fly    A

Which Fly value belongs to `CC(=NOC(=O)N(C)SC(Cl)(Cl)Cl)C(C)(C)N=[N+]=[N-]` ? A

Which Fly value belongs to `CSCC(C)=NOC(=O)N(C)SC(Cl)(Cl)Cl` ? A

Which Fly value belongs to `CCOC(=O)CSC(C)=NOC(=O)N(C)SC(Cl)(Cl)Cl` ? C

Which Fly value belongs to `CN(SC(Cl)(Cl)Cl)C(=O)ON=CC(C)(C)S(C)(=O)=O` ? A

Which Fly value belongs to `CCOC(=O)CCSC(C)=NOC(=O)N(C)SC(Cl)(Cl)Cl` ? B

Which Fly value belongs to `CSC(=NOC(=O)N(C)SC(Cl)(Cl)Cl)C(C)(SC)SC` ? A

Which Fly value belongs to `CC(=NOC(=O)N(C)SC(Cl)(Cl)Cl)SCCC#N` ? A

Which Fly value belongs to `CN(SC(Cl)(Cl)Cl)C(=O)ON=CC(C)(C)C#N` ? A

Which Fly value belongs to `CC(CSC(C)(C)C)=NOC(=O)N(C)SC(Cl)(Cl)Cl` ? C

====

For each record, write down the corresponding LD50.
MEASUREMENT_DESCRIPTION: Peroral toxicity to mammals (rat)
CONDITION_SET: in vivo, po, Table II
A number alone suffices; assume mg/kg.

Which LD50 value belongs to CNC(=O)ON=C(C)SCCC#N [drawing 23 R=H, reference compound] ? 7.7

Which LD50 value belongs to CNC(=O)ON=CC(C)(C)C#N [drawing 22 R=H, X=CN, reference compound] ? 9.5

Which LD50 value belongs to `CN(SC(Cl)(Cl)Cl)C(=O)ON=CC(C)(C)[N+](=O)[O-]` ? 14

Which LD50 value belongs to CNC(=O)ON=CC(C)(C)[N+](=O)[O-] [drawing 22 R=H, X=NO2, reference compound] ? 4

Which LD50 value belongs to `CN(SC(Cl)(Cl)Cl)C(=O)ON=CC(C)(C)C#N` ? 28.3

====

Tested on: two-spotted mite (Tetranychus urticae Koch)
MEASUREMENT_DESCRIPTION: Mite Systemic Test
Type: in vivo
Set-up: key: C: no control; B: partial control; A: excellent control
CONDITION_SET: soil drench, 20 milliliters of test formulation
ENDPOINT: Mite (Systemic)

> print(dat)
                                   compound  val
1  CN(SC(Cl)(Cl)Cl)C(=O)ON=CC(C)(C)S(C)(=O)=O    C
2  CCOC(=O)CSC(C)(C)C=NOC(=O)N(C)SC(Cl)(Cl)Cl    C
3    COC(C)(C)C(Cl)=NOC(=O)N(C)SC(Cl)(Cl)Cl    A
4  CN(SC(Cl)(Cl)Cl)C(=O)ON=CC(C)(C)[S+](C)[O-] (centres unmarked)    A
5   CSC(=NOC(=O)N(C)SC(Cl)(Cl)Cl)C(C)(SC)SC    B
6       CN(SC(Cl)(Cl)Cl)C(=O)ON=CC(C)(C)C#N    A

Which Mite (Systemic) value belongs to `CC(=NOC(=O)N(C)SC(Cl)(Cl)Cl)C(C)(C)C#N` ? A

Which Mite (Systemic) value belongs to CCOC(=O)C(C)SC(C)(C)C=NOC(=O)N(C)SC(Cl)(Cl)Cl (centres unmarked) ? B

Which Mite (Systemic) value belongs to `CCOC(=O)CSC(C)=NOC(=O)N(C)SC(Cl)(Cl)Cl` ? C

Which Mite (Systemic) value belongs to `CSCC(=NOC(=O)N(C)SC(Cl)(Cl)Cl)C(C)(C)C` ? A

Which Mite (Systemic) value belongs to `CC(=NOC(=O)N(C)SC(Cl)(Cl)Cl)C(C)(C)[N+](=O)[O-]` ? A

====

MEASUREMENT_DESCRIPTION: Peroral toxicity to mammals (rat)
CONDITION_SET: in vivo, po, peroral, Table I
ENDPOINT: LD50 (mg/kg)
A number alone suffices; assume mg/kg.

Which LD50 value belongs to `CN(SC(Cl)(Cl)Cl)C(=O)ON=CC(C)(C)[N+](=O)[O-]` ? 13

Which LD50 value belongs to `CC(=NOC(=O)N(C)SC(Cl)(Cl)Cl)SCCC#N` ? 85.7

====

Test system: two-spotted mite (Tetranychus urticae Koch)
MEASUREMENT_DESCRIPTION: Mite Foliage Spray Test
Assay type: in vivo
CONDITION_SET: Tetranychus urticae, foliar; Table II, side by side comparison; read-out: Mites Spray LD50
LC50 strictly under 40 µg/mL means yes; at 40 µg/mL or over means no.

Item CNC(=O)ON=CC(C)(C)[N+](=O)[O-] [drawing 22 R=H, X=NO2, reference compound] : LC50 beneath 40 µg/mL, strictly? yes

Item CNC(=O)ON=C(C)SCCC#N [drawing 23 R=H, reference compound] : LC50 beneath 40 µg/mL, strictly? yes

Item `CC(=NOC(=O)N(C)SC(Cl)(Cl)Cl)SCCC#N` : LC50 beneath 40 µg/mL, strictly? yes

Item `CN(SC(Cl)(Cl)Cl)C(=O)ON=CC(C)(C)C#N` : LC50 beneath 40 µg/mL, strictly? yes

Item CN(SC(F)(F)F)C(=O)ON=CC(C)(C)C#N [drawing 22 R=SCF3, X=CN] : LC50 beneath 40 µg/mL, strictly? no

====

System: southern armyworm (Prodenia eridania, (Cram.))
MEASUREMENT_DESCRIPTION: Southern Armyworm Leaf Spray Test
Type: in vivo
CONDITION_SET: Spodoptera eridania; Table II; read-out: Armyworm LD50
LC50 strictly under 60 µg/mL means class 1; at 60 µg/mL or over means class 0.

Item CN(SC(F)(F)F)C(=O)ON=CC(C)(C)C#N [drawing 22 R=SCF3, X=CN] : LC50 beneath 60 µg/mL, strictly? class 0

Item `CN(SC(Cl)(Cl)Cl)C(=O)ON=CC(C)(C)[N+](=O)[O-]` : LC50 beneath 60 µg/mL, strictly? class 0

Item `CN(SC(Cl)(Cl)Cl)C(=O)ON=CC(C)(C)C#N` : LC50 beneath 60 µg/mL, strictly? class 1

Item `CC(=NOC(=O)N(C)SC(Cl)(Cl)Cl)SCCC#N` : LC50 beneath 60 µg/mL, strictly? class 1

Item CNC(=O)ON=CC(C)(C)C#N [drawing 22 R=H, X=CN, reference compound] : LC50 beneath 60 µg/mL, strictly? class 1

Item CNC(=O)ON=C(C)SCCC#N [drawing 23 R=H, reference compound] : LC50 beneath 60 µg/mL, strictly? class 1

Item CNC(=O)ON=CC(C)(C)[N+](=O)[O-] [drawing 22 R=H, X=NO2, reference compound] : LC50 beneath 60 µg/mL, strictly? class 1

====

System: two-spotted mite (Tetranychus urticae Koch)
MEASUREMENT_DESCRIPTION: Mite Foliage Spray Test
Format: in vivo
Parameters: key: C: no control; B: partial control; A: excellent control
CONDITION_SET: foliage spray, 500 parts per million, six days
ENDPOINT: Mite (Spray)

> print(dat)
                                   compound                           target.of.assay      endpoint  val
1  CC(C[N+](=O)[O-])=NOC(=O)N(C)SC(Cl)(Cl)Cl  two-spotted mite (Tetranychus urticae Koch)  Mite (Spray)    C
2  CN(SC(F)(F)F)C(=O)ON=CC(C)(C)C#N [drawing 12]  two-spotted mite (Tetranychus urticae Koch)  Mite (Spray)    A
3    CSCC(=NOC(=O)N(C)SC(Cl)(Cl)Cl)C(C)(C)C  two-spotted mite (Tetranychus urticae Koch)  Mite (Spray)    A
4   CCOC(=O)CCSC(C)=NOC(=O)N(C)SC(Cl)(Cl)Cl  two-spotted mite (Tetranychus urticae Koch)  Mite (Spray)    C

Which Mite (Spray) value belongs to `CC(=NOC(=O)N(C)SC(Cl)(Cl)Cl)C(C)(C)N=[N+]=[N-]` ? C

Which Mite (Spray) value belongs to `CN(SC(Cl)(Cl)Cl)C(=O)ON=CC(C)(C)C#N` ? A

Which Mite (Spray) value belongs to CCOC(=O)C(C)SC(C)(C)C=NOC(=O)N(C)SC(Cl)(Cl)Cl (centres unmarked) ? B

Which Mite (Spray) value belongs to `CN(SC(Cl)(Cl)Cl)C(=O)ON=CC(C)(C)S(C)(=O)=O` ? A
